Test system: Calf thymus DNA
Assay: Binding affinity to calf thymus DNA assessed as dissociation constant measured at 332 nm absorbance by UV-Vis spectroscopic analysis
Format: nucleic-acid assay, Bos taurus
pKd: −log10 of the molar value.
recorded.metric: pKd

• CN(C)CCCn1c2ccccc2c2cc3ccccc3nc21 = 5.00

###

Tested on: Calf thymus DNA
Test: Binding affinity to calf thymus DNA assessed as dissociation constant by UV-Vis spectroscopic analysis
Type: nucleic-acid assay, Bos taurus
pKd: −log10 of the molar value.
Below, each of the compounds is paired with its reported pKd value.
recorded.metric: pKd

* CN(C)CCCn1c2ccccc2c2cc3ccccc3nc21 | 4.70
* C[n+]1c2ccccc2cc2[n-]c3ccccc3c21 [CRYPTOLEPINE] | 6.62

These entries and their values trace back to ChEMBL document CHEMBL5360584.
